Cited source for all entries: the RepoRT retention time repository

TEST DESCRIPTION: Agilent ZORBAX 300 SB-C18, 150 × 1 mm, 3.5 µm; A: water + 0.01% heptafluorobutyric acid; B: acetonitrile + 0.01% heptafluorobutyric acid; gradient (min/%B) 0/0 100/90
MEASUREMENT CONTEXT: stereoisomer not certain
PROPERTY LABEL: LC retention time (min)
Only the number, expressed in min, is required.

Known results for compounds:
QUERY: Given the compound Cc1ccc(N2C(=O)NC(=O)C(=Cc3cc(C)n(-c4ccccc4)c3C)C2=O)cc1 , what is its reported LC retention time?
RESULT: 15

QUERY: GET /values?readout=LC retention time&item= COc1cc(C=CC(=O)c2ccc(C)cc2)cc(OC)c1OC
RESULT: 15.9

Next compound, LC retention time to be filled in.
QUERY: Please report the recorded LC retention time for c1ccc2c(c1)ccc1cccnc12 .
RESULT: 12.7
